Data provenance is patent US20230117034A1.

- Test system: CAL-120, human breast adenocarcinoma cells
- Experiment description: Proliferation assay CAL-120 (crystal violet, 4 days)
- Assay type: cell-based
- Reported conditions: Homo sapiens, CAL-120, 96 h, CAL-120 cells, median, read-out: Prolif-CAL-120, IC50-[mol/l] (median)
Recorded endpoint: pIC50
Answers are plain numbers, as −log10 of the molar value.

INSERT INTO assay_data (compound, study_target, recorded_endpoint, test_result) VALUES
  ('Fc1cccc2[nH]c(CNc3nc(N4CCOCC4)nc4c(Cl)cnn34)nc12', 'CAL-120, human breast adenocarcinoma cells', 'pIC50', 8.17),
  ('Brc1cnn2c(NCc3nc4ccccc4[nH]3)nc(N3CCC4(CCN4)CC3)nc12', 'CAL-120, human breast adenocarcinoma cells', 'pIC50', 7.73),
  ('NC1CCN(c2nc(NCc3nc4ccccc4[nH]3)n3ncc(Br)c3n2)CC1', 'CAL-120, human breast adenocarcinoma cells', 'pIC50', 8.00),
  ('CN1CCN(c2nc(NCc3nc4cc(F)ccc4[nH]3)n3ncc(Br)c3n2)CC1', 'CAL-120, human breast adenocarcinoma cells', 'pIC50', 7.94),
  ('CN1CCN(c2nc(NCc3nc4ccccc4[nH]3)n3ncc(Br)c3n2)C(CO)C1 (single isomer, unassigned) [Example 280]', 'CAL-120, human breast adenocarcinoma cells', 'pIC50', 7.19),
  ('[O-][S+]1CCN(c2nc(NCc3nc4ccccc4[nH]3)n3ncc(Br)c3n2)CC1', 'CAL-120, human breast adenocarcinoma cells', 'pIC50', 6.96);

Batch of 2 compounds: report pIC50 for each.
1. Fc1cccc2[nH]c(CNc3nc(N4C[C@@H]5CCCN[C@@H]5C4)nc4c(C5CC5)cnn34)nc12
2. OCC1CCN1c1nc(NCc2nc3ccccc3[nH]2)n2ncc(Br)c2n1 (centres unmarked)

Reply:
8.96
6.51
